Hello, the source for this data is paper PMC2639639, in case you need it.

tested on: NIH/3T3 cells; experiment: Cytotoxicity assay (Alamar Blue) on NIH/3T3 cells; assay type: cell-based; settings: 4-day assay on NIH/3T3 cells
recorded endpoint: TC50 > 25 mg/ml

# count of solved cases: 5
compound structure string	recorded endpoint	test result
CCOC(=O)c1ccc(Nc2nc3nonc3nc2NC(C)C)cc1	TC50 > 25 mg/ml	NO (> 25 mg/ml)
O=C(NN=Cc1cc(Br)cc(Br)c1O)c1cccc(N2CCCC2=O)c1	TC50 > 25 mg/ml	NO (> 25 mg/ml)
CCOc1ccc(-c2cn3c4ccccc4n(CCN(CC)CC)c3n2)cc1.Cl	TC50 > 25 mg/ml	NO (> 25 mg/ml)
COc1ccc(NC(=S)NC(=O)c2ccco2)cc1	TC50 > 25 mg/ml	YES (> 25 mg/ml)
Cc1ccc2n(c1)cc(C)[n+]2CC(=O)c1ccc(-c2ccccc2)cc1.[Br-]	TC50 > 25 mg/ml	YES (> 25 mg/ml)

For each listed entry, give its TC50 > 25 mg/ml.
1. CCN(CC)c1ccc(N=Cc2cccc(C)c2)cc1
2. Br.Cc1ccnc(Nc2nc(-c3ccccn3)cs2)c1
3. O=c1c2c3c(sc2[nH]c(=S)n1Cc1ccccc1)CCC3

Reply:
1. YES (> 25 mg/ml)
2. NO (> 25 mg/ml)
3. NO (> 25 mg/ml)

====

system: T. cruzi (Tulahuen strain) expressing β-galactosidase; experiment: T. cruzi growth inhibition assay (β-gal activity, infection of NIH/3T3 cells); type: cell-based, Trypanosoma cruzi; details: Trypanosoma cruzi, TULAHUEN, NIH3T3, 96 h, β-gal T. cruzi Tulahuen, 50.000 NIH/3T3 cells and parasites (MOI 1:1), 4 days; read-out: IC50 Intracellular growth
Just a reminder that ties go to -1: only IC50 strictly below 700 nM counts as 1.

// known answers, use as guide
compound structure string	cat
O=C(NN=Cc1ccc(-c2cccc(Cl)c2Cl)o1)c1ccncc1	-1
O=C(CCCn1cnc([N+](=O)[O-])n1)Nc1cc(C(F)(F)F)ccc1Cl	-1
Cc1cc(Cl)cc(C)c1OCCCCCn1ccnc1	1

Query: Quick check: IC50 of O=C(NN=Cc1ccc(-c2cccc(Cl)c2)o1)c1ccccn1 under 700 nM?
Reply: 1

Query: Quick check: IC50 of O=C(Cn1cnc([N+](=O)[O-])n1)Nc1cc(Oc2cccc(C(F)(F)F)c2)cc([N+](=O)[O-])c1 under 700 nM?
Reply: 1

====

Please go through the items and note down their IC50.
tested on: T. cruzi (Tulahuen strain) expressing β-galactosidase; assay: T. cruzi growth inhibition assay (β-gal activity, infection of NIH/3T3 cells); format: cell-based, Trypanosoma cruzi; conditions: Trypanosoma cruzi, TULAHUEN, NIH3T3, 96 h, β-gal T. cruzi Tulahuen, 50.000 NIH/3T3 cells and parasites (MOI 1:1), 4 days; read-out: IC50 Intracellular growth
One number for each entry, in nM.

compound structure string	readout unit	IC50
Cc1cc(OCCCCCCn2ccnc2)cc(C)c1Cl	nM	23
O=C(NN=Cc1ccc(-c2cccc(Cl)c2Cl)o1)c1ccccn1	nM	54
Cc1cc(OCCCCn2ccnc2)cc(C)c1Cl	nM	5.1
O=C(NN=Cc1ccc(-c2cc(Cl)ccc2Cl)o1)c1ccccc1	nM	960
Cc1cc(OCCCCCn2ccnc2)cc(C)c1Cl	nM	2

Query molecule follows.
Field IC50 (entry O=C(Cn1cnc([N+](=O)[O-])n1)Nc1cccc(C(F)(F)F)c1 ) reads 1060
